- Tested on: KM12 colon
- Test: NCI-60 one-dose screen, 48 h
- Measurement Conditions: 10 µM unless noted
- Description: Growth inhibition of the KM12 human tumor cell line is measured as a screen for anti-cancer activity. Cells are grown in 96 well plates and exposed to the test compound for 48 hours. Compounds are tested at a single concentration, which is 10^-5 M for most compounds. The reported endpoint is percent growth (GI% or GIPRCNT), where numbers from 0 - 100% represent growth inhibition, and numbers from -100% - 0 represent cell death. For example, a value of 40 represents 60% growth inhibition. […]
The panel holds about 83,000 compounds, 20% with a hit somewhere; the sample as a whole holds those more often. The source made the active and inactive calls. Rule for the calls: active = growth percent below 10; inactive = the rest.
Please state which outcome applies, choosing from t (active), f (inactive)

Example entries and their recorded answers appear below.
CCCCCCCCCCCC[n+]1ccc(CCCCCCCCC)cc1 ... t
CCOc1cc(F)c([N+](=O)[O-])cc1[N+](=O)[O-] ... t
N#CC(I)CS(=O)(=O)c1ccccc1 (centres undefined) ... f
CCOC(=O)C1=NN(c2ccccc2)C(=O)/C1=C\N1C(=O)/C(=C/c2cccc(O)c2)SC1=S ... f
O=C(Nc1ccc(Cl)c(Cl)c1)OCc1ccco1 ... t
Oc1cc(Cl)ccc1Cc1ccc(Cl)cc1O ... f
c1ccc(C2NCCNC2c2ccccc2)cc1 (centres undefined) ... f
N#CC1c2ccccc2C=CN1C(=O)CCCl (centres undefined) ... f

I'd appreciate the recorded outcome for "CC1=CC(=NC(=O)CBr)C=C/C1=N\S(=O)(=O)c1ccccc1" from this test.
f

I'd appreciate the recorded outcome for "CN(C)c1ccc(C(C#N)(c2ccccc2)c2ccc(N(C)C)cc2)cc1" from this test.
f

I'd appreciate the recorded outcome for "Cc1ccc2c(c1)sc(-c1ccc(N(C)C)cc1)[n+]2C" from this test.
t

I'd appreciate the recorded outcome for CC1CC(C)(C)OB(OC(C)CC(C)(C)OB2OC(C)CC(C)(C)O2)O1 (centres undefined) from this test.
f

I'd appreciate the recorded outcome for "O=[N+]([O-])c1ccc(C2N(Cc3ccc(Cl)cc3)CCN2Cc2ccc(Cl)cc2)cc1" from this test.
f

I'd appreciate the recorded outcome for "C/C(=N/NC(N)=S)c1ccc(C)cc1" from this test.
f

I'd appreciate the recorded outcome for CCOc1ccc2c(c1)/C(=C\C=C\C1CC(C)C3CC(OCC)CCC3N1CC)CC(C)N2CC (centres undefined) from this test.
t

I'd appreciate the recorded outcome for "O=[N+]([O-])c1ccc(Oc2ccccc2Cl)c([N+](=O)[O-])c1" from this test.
f

I'd appreciate the recorded outcome for "Fc1ccc(NCCS)cc1" from this test.
f

I'd appreciate the recorded outcome for CC(O)C(O)C(O)C(O)C(O)C(=O)NNc1ccccc1 (centres undefined) from this test.
f

I'd appreciate the recorded outcome for "CCOC(=O)c1[nH]c(C#N)c(C(=O)OCC)c1C" from this test.
f

I'd appreciate the recorded outcome for CCCCC(CCc1ccc([N+](=O)[O-])cc1)(C(C)=O)C(=O)OCC (centres undefined) from this test.
f

I'd appreciate the recorded outcome for CCCCCCCCCCCC(=O)OC(C)C(=O)NCCCC (centres undefined) from this test.
f

I'd appreciate the recorded outcome for "COc1c(C)c2c(c(O)c1C/C=C(\C)CCC(=O)O)C(=O)OC2" from this test.
f

I'd appreciate the recorded outcome for "Cc1nnc(N/N=C/c2ccc([N+](=O)[O-])o2)[nH]c1=O" from this test.
f

I'd appreciate the recorded outcome for "CN1CCC(c2ccccc2)(c2ccccc2)C(=O)C1" from this test.
f
